system: KM12 colon; experiment: NCI tumour cell line growth inhibition, 48 h
ENDPOINT NAME: log10 of TGI (log10 of the value in µM)
Parameter value (number): base-10 log of TGI in µM.

Reference set (4 entries):
COMPOUND | log10 of TGI
COc1cc2c(cc1OC)-c1ccc3cc4c(cc3c1N(CCCn1ccnc1)C2)OCO4 | 1.50
COc1ccc(/C(COc2ccc3c(=O)c(-c4ccccc4)coc3c2)=N\O)cc1 | 1.61
C=C1C(=O)OC2C1CCC(C)C1C=CC(=O)C12C (stereo not given) | 0.78
COC(=O)C1=CSC2(S1)C(C(=O)OC)=CSc1c2ssc1=O (stereo not given) | 1.11

# ---- query compound ----
Lookup: Please report the recorded log10 of TGI for "CC1(C)CCc2c(c(N=Nc3ccc(S(N)(=O)=O)cc3)c3ccccc3c2O)O1" .
Found: 1.82
